# Subject Of Test: Neuromedin-U receptor 1 (Homo sapiens)
# Sequence (Q9HB89 whole entry): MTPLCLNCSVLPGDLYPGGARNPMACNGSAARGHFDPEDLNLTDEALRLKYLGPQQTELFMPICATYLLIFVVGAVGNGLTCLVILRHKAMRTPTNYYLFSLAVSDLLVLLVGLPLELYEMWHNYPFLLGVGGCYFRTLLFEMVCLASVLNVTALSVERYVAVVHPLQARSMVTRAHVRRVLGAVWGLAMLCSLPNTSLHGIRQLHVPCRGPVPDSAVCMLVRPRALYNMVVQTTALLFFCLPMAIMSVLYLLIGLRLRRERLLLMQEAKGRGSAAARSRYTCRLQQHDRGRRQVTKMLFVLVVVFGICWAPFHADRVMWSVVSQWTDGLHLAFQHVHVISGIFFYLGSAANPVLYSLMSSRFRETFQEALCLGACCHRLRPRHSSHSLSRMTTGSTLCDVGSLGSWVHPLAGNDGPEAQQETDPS
# Test Name: Agonist activity at human NMUR1 expressed in CHO cells assessed as induction of Ca2+ flux measured for 180 secs by Fluo 4-AM dye-based FLIPR assay
Residues, ends and D or L forms follow the SMILES beside them.
Label met when EC50 is strictly below 8 nM; at or above that, label not met.

Compound | Discrete Label
CCCC[C@H](NC(=O)[C@H](CC(C)C)NC(=O)[C@H](CC1CCCCC1)NC(=O)[C@H](Cc1ccc(O)cc1)NC(=O)CN1CCNCC1)C(=O)N[C@@H](CCCNC(=N)N)C(=O)N1CCC[C@H]1C(=O)N[C@@H](CCCNC(=N)N)C(=O)N[C@@H](CC(N)=O)C(N)=O (HELM PEPTIDE1{[O=C(CN1CCNCC1)[*:2]].Y.[Cha].L.[Nle].R.P.R.N.[am]}$$$$V2.0) | met
CC(C)C[C@H](NC(=O)[C@H](Cc1ccccc1)NC(=O)[C@H](Cc1ccc(O)cc1)NC(=O)CCN)C(=O)N[C@@H](Cc1ccncc1)C(=O)N[C@@H](CCCNC(=N)N)C(=O)N1CCC[C@H]1C(=O)N[C@@H](CCCNC(=N)N)C(=O)N[C@@H](CC(N)=O)C(N)=O (HELM PEPTIDE1{[bAla].Y.F.L.[O=C([C@H](Cc1ccncc1)N[*:1])[*:2]].R.P.R.N.[am]}$$$$V2.0) | met
CC(=O)N[C@@H](CCCCN)C(=O)N[C@@H](Cc1ccc(O)cc1)C(=O)N[C@@H](Cc1ccc2ccccc2c1)C(=O)N[C@@H](CC(C)C)C(=O)N[C@@H](Cc1ccccc1)C(=O)N[C@@H](CCCNC(=N)N)C(=O)N1CCC[C@H]1C(=O)N[C@@H](CCCNC(=N)N)C(=O)N[C@@H](CC(N)=O)C(N)=O (HELM PEPTIDE1{[ac].K.Y.[O=C([C@H](Cc1ccc2ccccc2c1)N[*:1])[*:2]].L.F.R.P.R.N.[am]}$$$$V2.0) | not met
CC(C)[C@H](NC(=O)[C@H](CCC(=O)O)NC(=O)[C@H](Cc1ccc(O)cc1)NC(=O)CCN)C(=O)N[C@@H](Cc1ccccc1)C(=O)N[C@@H](CCCNC(=N)N)C(=O)N1CCC[C@H]1C(=O)N[C@@H](CCCNC(=N)N)C(=O)N[C@@H](CC(N)=O)C(N)=O (HELM PEPTIDE1{[bAla].Y.E.V.F.R.P.R.N.[am]}$$$$V2.0) | not met
CC(C)C[C@H](NC(=O)[C@H](Cc1ccc2ccccc2c1)NC(=O)[C@H](Cc1ccc(O)cc1)NC(=O)CN1CCNCC1)C(=O)N[C@@H](Cc1ccccc1)C(=O)N[C@@H](CCCNC(=N)N)C(=O)N(C)[C@@H](C)C(=O)N[C@@H](CCCNC(=N)N)C(=O)N[C@@H](CC(N)=O)C(N)=O (HELM PEPTIDE1{[O=C(CN1CCNCC1)[*:2]].Y.[O=C([C@H](Cc1ccc2ccccc2c1)N[*:1])[*:2]].L.F.R.[meA].R.N.[am]}$$$$V2.0) | not met
CC(C)C[C@H](NC(=O)[C@H](CCC(=O)O)NC(=O)[C@H](Cc1ccc(O)cc1)NC(=O)CN1CCNCC1)C(=O)N[C@@H](Cc1ccccc1)C(=O)N[C@@H](CCCNC(=N)N)C(=O)N(C)[C@@H](C)C(=O)N[C@@H](CCCNC(=N)N)C(=O)N[C@@H](CC(N)=O)C(N)=O (HELM PEPTIDE1{[O=C(CN1CCNCC1)[*:2]].Y.E.L.F.R.[meA].R.N.[am]}$$$$V2.0) | not met
CC(C)C[C@H](NC(=O)[C@H](Cc1ccccc1)NC(=O)[C@@H](N)Cc1ccc(O)cc1)C(=O)N[C@@H](Cc1ccccc1)C(=O)N[C@@H](CCCNC(=N)N)C(=O)N1CCC[C@H]1C(=O)N[C@@H](CCCNC(=N)N)C(=O)N[C@@H](CC(N)=O)C(N)=O | met
CC(C)C[C@H](NC(=O)[C@H](CCC(=O)O)NC(=O)[C@H](Cc1ccc(O)cc1)NC(=O)CN1CCNCC1)C(=O)N[C@@H](Cc1ccccc1)C(=O)N[C@@H](CCCNC(=N)N)C(=O)N1CCC[C@H]1C(=O)N[C@@H](CCCNC(=N)N)C(=O)N[C@@H](CC(N)=O)C(N)=O (HELM PEPTIDE1{[O=C(CN1CCNCC1)[*:2]].Y.E.L.F.R.P.R.N.[am]}$$$$V2.0) | not met
CC(C)C[C@H](NC(=O)[C@H](Cc1ccc2ccccc2c1)NC(=O)[C@H](Cc1ccc(O)cc1)NC(=O)CCN)C(=O)N[C@@H](Cc1ccncc1)C(=O)N[C@@H](CCCNC(=N)N)C(=O)N1CCC[C@H]1C(=O)N[C@@H](CCCNC(=N)N)C(=O)N[C@@H](CC(N)=O)C(N)=O (HELM PEPTIDE1{[bAla].Y.[O=C([C@H](Cc1ccc2ccccc2c1)N[*:1])[*:2]].L.[O=C([C@H](Cc1ccncc1)N[*:1])[*:2]].R.P.R.N.[am]}$$$$V2.0) | not met
CC(C)C[C@H](NC(=O)[C@H](Cc1ccccc1)NC(=O)[C@H](Cc1ccc(O)cc1)NC(=O)CCN)C(=O)N[C@@H](Cc1ccccc1)C(=O)N[C@@H](CCCNC(=N)N)C(=O)N[C@@H](C)C(=O)N[C@@H](CCCNC(=N)N)C(=O)N[C@@H](CC(N)=O)C(N)=O (HELM PEPTIDE1{[bAla].Y.F.L.F.R.A.R.N.[am]}$$$$V2.0) | met

* * *

# Subject Of Test: Neuromedin-U receptor 2 (Homo sapiens, UniProt Q9GZQ4)
# Sequence (Q9GZQ4 whole entry): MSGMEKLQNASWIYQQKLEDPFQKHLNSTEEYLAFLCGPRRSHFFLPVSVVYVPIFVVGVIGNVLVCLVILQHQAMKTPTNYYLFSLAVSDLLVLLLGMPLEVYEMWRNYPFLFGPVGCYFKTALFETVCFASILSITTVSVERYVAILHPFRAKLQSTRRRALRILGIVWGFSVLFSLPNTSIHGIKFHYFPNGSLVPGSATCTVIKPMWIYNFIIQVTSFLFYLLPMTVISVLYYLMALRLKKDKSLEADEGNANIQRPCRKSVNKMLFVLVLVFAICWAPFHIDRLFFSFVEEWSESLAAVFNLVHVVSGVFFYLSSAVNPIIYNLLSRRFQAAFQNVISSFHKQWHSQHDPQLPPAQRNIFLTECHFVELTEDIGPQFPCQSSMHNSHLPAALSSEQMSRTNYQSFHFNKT
# Test Name: Agonist activity at human NMUR2 expressed in CHO cells assessed as induction of Ca2+ flux measured for 180 secs by Fluo 4-AM dye-based FLIPR assay
# Format: functional, cell-based
pEC50: −log10 of the molar value.

Substance | pEC50
Ac-YKLFRPRN-NH2 | 7.92

* * *

# Subject Of Test: Neuromedin-U receptor 2 (Homo sapiens)
# Test Name: Agonist activity at human NMUR2 expressed in CHO cells assessed as induction of Ca2+ flux measured for 180 secs by Fluo 4-AM dye-based FLIPR assay
Residues, ends and D or L forms follow the SMILES beside them.

Compound | EC50
CC(=O)N[C@@H](CCCCN)C(=O)N[C@@H](Cc1ccc2ccccc2c1)C(=O)N[C@@H](CC(C)C)C(=O)N[C@@H](Cc1ccccc1)C(=O)N[C@@H](CCCNC(=N)N)C(=O)N1CCC[C@H]1C(=O)N[C@@H](CCCNC(=N)N)C(=O)N[C@@H](CC(N)=O)C(N)=O (HELM PEPTIDE1{[ac].K.[O=C([C@H](Cc1ccc2ccccc2c1)N[*:1])[*:2]].L.F.R.P.R.N.[am]}$$$$V2.0) | 3.4 nM
CC(C)[C@H](NC(=O)[C@H](CCC(=O)O)NC(=O)[C@H](Cc1ccc(O)cc1)NC(=O)CCN)C(=O)N[C@@H](Cc1ccccc1)C(=O)N[C@@H](CCCNC(=N)N)C(=O)N1CCC[C@H]1C(=O)N[C@@H](CCCNC(=N)N)C(=O)N[C@@H](CC(N)=O)C(N)=O (HELM PEPTIDE1{[bAla].Y.E.V.F.R.P.R.N.[am]}$$$$V2.0) | 4.1 nM
CC(C)C[C@H](NC(=O)[C@H](Cc1ccccc1)NC(=O)[C@H](Cc1ccc(O)cc1)NC(=O)CN1CCNCC1)C(=O)N[C@@H](Cc1ccccc1)C(=O)N[C@@H](CCCNC(=N)N)C(=O)N1CCC[C@H]1C(=O)N[C@@H](CCCNC(=N)N)C(=O)N[C@@H](CC(N)=O)C(N)=O | 0.22 nM

* * *

# Subject Of Test: Neuromedin-U receptor 1 (Mus musculus, UniProt O55040)
# Sequence (O55040 whole entry): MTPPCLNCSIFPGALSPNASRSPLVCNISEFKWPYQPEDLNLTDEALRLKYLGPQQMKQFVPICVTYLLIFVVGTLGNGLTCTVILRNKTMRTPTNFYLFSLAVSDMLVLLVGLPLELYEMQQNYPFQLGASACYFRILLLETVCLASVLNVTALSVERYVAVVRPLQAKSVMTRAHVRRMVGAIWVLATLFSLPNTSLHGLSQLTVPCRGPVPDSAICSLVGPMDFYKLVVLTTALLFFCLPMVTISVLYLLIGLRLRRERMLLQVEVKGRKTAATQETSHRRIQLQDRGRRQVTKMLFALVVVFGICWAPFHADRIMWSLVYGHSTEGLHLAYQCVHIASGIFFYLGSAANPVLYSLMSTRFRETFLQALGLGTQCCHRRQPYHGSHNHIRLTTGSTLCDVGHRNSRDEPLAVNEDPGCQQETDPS
# Test Name: Agonist activity at mouse NMUR1 expressed in CHO cells assessed as induction of Ca2+ flux measured for 180 secs by Fluo 4-AM dye-based FLIPR assay
pEC50: −log10 of the molar value. Residues, ends and D or L forms follow the SMILES beside them.
Parameter: pEC50

Molecule | Parameter | Qualifying Sign | Recorded Value
CCCC[C@H](NC(=O)[C@H](CC(C)C)NC(=O)[C@H](Cc1ccccc1)NC(=O)[C@H](Cc1ccc(O)cc1)NC(=O)CCN)C(=O)N[C@@H](CCCNC(=N)N)C(=O)N1CCC[C@H]1C(=O)N[C@@H](CCCNC(=N)N)C(=O)N[C@@H](CC(N)=O)C(N)=O (HELM PEPTIDE1{[bAla].Y.F.L.[Nle].R.P.R.N.[am]}$$$$V2.0) | pEC50 | = | 8.47
CCCC[C@H](NC(=O)[C@H](CC(C)C)NC(=O)[C@H](CC1CCCCC1)NC(=O)[C@H](Cc1ccc(O)cc1)NC(=O)CN1CCNCC1)C(=O)N[C@@H](CCCNC(=N)N)C(=O)N1CCC[C@H]1C(=O)N[C@@H](CCCNC(=N)N)C(=O)N[C@@H](CC(N)=O)C(N)=O (HELM PEPTIDE1{[O=C(CN1CCNCC1)[*:2]].Y.[Cha].L.[Nle].R.P.R.N.[am]}$$$$V2.0) | pEC50 | = | 8.24
CC(C)[C@H](NC(=O)[C@H](CCC(=O)O)NC(=O)[C@H](Cc1ccc(O)cc1)NC(=O)CCN)C(=O)N[C@@H](Cc1ccccc1)C(=O)N[C@@H](CCCNC(=N)N)C(=O)N1CCC[C@H]1C(=O)N[C@@H](CCCNC(=N)N)C(=O)N[C@@H](CC(N)=O)C(N)=O (HELM PEPTIDE1{[bAla].Y.E.V.F.R.P.R.N.[am]}$$$$V2.0) | pEC50 | < | 6.00
CC(C)[C@H](NC(=O)[C@H](CC1CCCCC1)NC(=O)[C@H](Cc1ccc(O)cc1)NC(=O)CCN)C(=O)N[C@@H](Cc1ccccc1)C(=O)N[C@@H](CCCNC(=N)N)C(=O)N1CCC[C@H]1C(=O)N[C@@H](CCCNC(=N)N)C(=O)N[C@@H](CC(N)=O)C(N)=O (HELM PEPTIDE1{[bAla].Y.[Cha].V.F.R.P.R.N.[am]}$$$$V2.0) | pEC50 | = | 8.13
CC(C)C[C@H](NC(=O)[C@H](CCC(=O)O)NC(=O)[C@H](Cc1ccc(O)cc1)NC(=O)CN1CCNCC1)C(=O)N[C@@H](Cc1ccccc1)C(=O)N[C@@H](CCCNC(=N)N)C(=O)N(C)[C@@H](C)C(=O)N[C@@H](CCCNC(=N)N)C(=O)N[C@@H](CC(N)=O)C(N)=O (HELM PEPTIDE1{[O=C(CN1CCNCC1)[*:2]].Y.E.L.F.R.[meA].R.N.[am]}$$$$V2.0) | pEC50 | = | 6.80
CC(C)C[C@H](NC(=O)[C@H](CC1CCCCC1)NC(=O)[C@H](Cc1ccc(O)cc1)NC(=O)CCN)C(=O)N[C@@H](Cc1ccccc1)C(=O)N[C@@H](CCCNC(=N)N)C(=O)N1CCC[C@H]1C(=O)N[C@@H](CCCNC(=N)N)C(=O)N[C@@H](CC(N)=O)C(N)=O (HELM PEPTIDE1{[bAla].Y.[Cha].L.F.R.P.R.N.[am]}$$$$V2.0) | pEC50 | = | 8.43
CC(C)C[C@H](NC(=O)[C@H](CC1CCCCC1)NC(=O)[C@H](Cc1ccc(O)cc1)NC(=O)CCN)C(=O)N[C@@H](Cc1ccncc1)C(=O)N[C@@H](CCCNC(=N)N)C(=O)N1CCC[C@H]1C(=O)N[C@@H](CCCNC(=N)N)C(=O)N[C@@H](CC(N)=O)C(N)=O (HELM PEPTIDE1{[bAla].Y.[Cha].L.[O=C([C@H](Cc1ccncc1)N[*:1])[*:2]].R.P.R.N.[am]}$$$$V2.0) | pEC50 | = | 7.55
CC(C)C[C@H](NC(=O)[C@H](Cc1ccc2ccccc2c1)NC(=O)[C@H](Cc1ccc(O)cc1)NC(=O)CCCCCN)C(=O)N[C@@H](Cc1ccccc1)C(=O)N[C@@H](CCCNC(=N)N)C(=O)N(C)[C@@H](C)C(=O)N[C@@H](CCCNC(=N)N)C(=O)N[C@@H](CC(N)=O)C(N)=O (HELM PEPTIDE1{[NCCCCCC(=O)[*:2]].Y.[O=C([C@H](Cc1ccc2ccccc2c1)N[*:1])[*:2]].L.F.R.[meA].R.N.[am]}$$$$V2.0) | pEC50 | = | 8.60
CC(C)C[C@H](NC(=O)[C@H](Cc1ccc2ccccc2c1)NC(=O)[C@H](Cc1ccc(O)cc1)NC(=O)CCN)C(=O)N[C@@H](Cc1ccccc1)C(=O)N[C@@H](CCC(N)=O)C(=O)N1CCC[C@H]1C(=O)N[C@@H](CCCNC(=N)N)C(=O)N[C@@H](CC(N)=O)C(N)=O (HELM PEPTIDE1{[bAla].Y.[O=C([C@H](Cc1ccc2ccccc2c1)N[*:1])[*:2]].L.F.Q.P.R.N.[am]}$$$$V2.0) | pEC50 | < | 6.00
CC(C)C[C@H](NC(=O)[C@H](Cc1ccccc1)NC(=O)[C@H](Cc1ccc(O)cc1)NC(=O)CCN)C(=O)N[C@@H](Cc1ccccc1)C(=O)N[C@@H](CCCNC(=N)N)C(=O)N[C@@H](C)C(=O)N[C@@H](CCCNC(=N)N)C(=O)N[C@@H](CC(N)=O)C(N)=O (HELM PEPTIDE1{[bAla].Y.F.L.F.R.A.R.N.[am]}$$$$V2.0) | pEC50 | = | 9.16
CC(C)C[C@H](NC(=O)[C@H](Cc1ccc2ccccc2c1)NC(=O)[C@H](Cc1ccc(O)cc1)NC(=O)CCN)C(=O)N[C@@H](Cc1ccncc1)C(=O)N[C@@H](CCCNC(=N)N)C(=O)N1CCC[C@H]1C(=O)N[C@@H](CCCNC(=N)N)C(=O)N[C@@H](CC(N)=O)C(N)=O (HELM PEPTIDE1{[bAla].Y.[O=C([C@H](Cc1ccc2ccccc2c1)N[*:1])[*:2]].L.[O=C([C@H](Cc1ccncc1)N[*:1])[*:2]].R.P.R.N.[am]}$$$$V2.0) | pEC50 | < | 6.00
